Taken from paper PMC4447944.

# EXPERIMENTAL TARGET: hCSNK1G2 (Homo sapiens, UniProt P78368)
# Sequence (P78368 whole entry): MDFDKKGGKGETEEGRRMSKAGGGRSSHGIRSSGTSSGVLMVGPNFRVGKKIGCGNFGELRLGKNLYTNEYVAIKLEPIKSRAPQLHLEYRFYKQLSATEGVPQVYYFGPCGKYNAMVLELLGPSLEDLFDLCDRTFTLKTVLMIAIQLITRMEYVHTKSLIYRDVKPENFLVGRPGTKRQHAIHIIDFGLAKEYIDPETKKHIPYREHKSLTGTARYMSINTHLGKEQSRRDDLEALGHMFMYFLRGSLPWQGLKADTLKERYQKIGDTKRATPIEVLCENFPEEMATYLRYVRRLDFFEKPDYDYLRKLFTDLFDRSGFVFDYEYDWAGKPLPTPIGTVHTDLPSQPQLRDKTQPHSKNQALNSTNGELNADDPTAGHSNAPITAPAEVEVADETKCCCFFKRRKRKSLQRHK

STRUCTURE SMILES	EXPERIMENTAL TARGET	IC50
Cc1cn(CCN2CCN(c3ccccc3-c3cc(C#N)cc(C(=O)NCCCN4CCCC4)c3)CC2)c2ccccc12	hCSNK1G2 (Homo sapiens, UniProt P78368)	> 20 µM

---

# EXPERIMENTAL TARGET: hAURKB (Homo sapiens, UniProt Q96GD4)
# Sequence (Q96GD4 whole entry): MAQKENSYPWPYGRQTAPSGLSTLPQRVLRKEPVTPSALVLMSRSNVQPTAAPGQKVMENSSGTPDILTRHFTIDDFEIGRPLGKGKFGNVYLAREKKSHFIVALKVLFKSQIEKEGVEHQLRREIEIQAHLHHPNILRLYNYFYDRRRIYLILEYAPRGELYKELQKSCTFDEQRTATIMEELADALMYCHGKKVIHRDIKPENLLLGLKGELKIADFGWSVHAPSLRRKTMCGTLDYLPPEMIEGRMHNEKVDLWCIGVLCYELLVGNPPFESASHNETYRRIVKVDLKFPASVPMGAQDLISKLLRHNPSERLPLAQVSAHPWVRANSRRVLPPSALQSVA
VALUE KIND: IC50

STRUCTURE SMILES	VALUE KIND	READOUT VALUE
Cc1cn(CCN2CCN(c3ccccc3-c3cc(C#N)cc(C(=O)NCCCN4CCCC4)c3)CC2)c2ccccc12	IC50	> 20 µM
